The measurements presented in this section are drawn from patent US20210395210A1.

assay: in vitro; conditions: human
parameterMeasured: CC50 at 48 h

Problem: Requested field: CC50 at 48 h. Item: COc1c(Br)cccc1C(=O)Nc1ccc(Sc2nc3ccccc3s2)c(Cl)c1 [Compound 30]
Solution: > 100 µM

Problem: Okay, and COc1c(Br)cccc1C(=O)Nc1ccc(Sc2nc3ccccc3s2)cc1 [Compound 34] ?
Solution: > 100 µM

Problem: Okay, and COc1c(Br)cccc1C(=O)Nc1ccccc1 [Compound 42, 3-Bromo-2-methoxy-N-phenylbenzamide] ?
Solution: > 100 µM

---

test system: HEK 293 kidney cells; test: Kidney cell viability assay (Alamar Blue); conditions: read-out: Human Cell Viability CC50, Kidney (HEK 293); HEK 293 kidney cells, Alamar Blue, 48 h
Here, each record is paired with measured CC50 data.

O=C(Nc1ccccc1)c1ccccc1O [Compound 16, 2-Hydroxy-N-phenylbenzamide]	> 100 µM

Problem: Requested field: CC50. Item: CC1(C)S[C@@H]2[C@H](NC(=O)[C@H](N)c3ccccc3)C(=O)N2[C@H]1C(=O)O [Ampicillin, ampicillin, reference compound]
Solution: > 100 µM

Problem: Okay, and CN[C@H](CC(C)C)C(=O)N[C@H]1C(=O)N[C@@H](CC(N)=O)C(=O)N[C@H]2C(=O)N[C@H]3C(=O)N[C@H](C(=O)N[C@H](C(=O)O)c4cc(O)cc(O)c4-c4cc3ccc4O)[C@H](O)c3ccc(c(Cl)c3)Oc3cc2cc(c3O[C@@H]2O[C@H](CO)[C@@H](O)[C@H](O)[C@H]2O[C@H]2C[C@](C)(N)[C@H](O)[C@H](C)O2)Oc2ccc(cc2Cl)[C@H]1O [Vancomycin, vancomycin, reference compound] ?
Solution: > 100 µM

Problem: Okay, and O=C(Nc1ccc(Oc2ccc(Cl)cc2)c(Cl)c1)c1cc(I)cc(I)c1O [Rafoxanide, rafoxanide, reference compound] ?
Solution: > 100 µM

---

system: Methicillin resistant S. aureus (MRSA) (ATCC BAA-44); assay: Bacterial proliferation assay, MRSA; type: cell-based, Staphylococcus aureus; settings: Staphylococcus aureus, read-out: Bacterial Proliferation EC50 S. aureus Resistant
parameterMeasured: pEC50
pEC50 is a log-scale quantity: -log10 of the concentration expressed in molar.

Solved entries (count: 2):
O=C(Nc1ccc(Sc2nc3ccccc3s2)c(Cl)c1)c1cccc(Br)c1O	6.15
O=C(Nc1ccc(Sc2nc3ccccc3s2)cc1)c1cccc(Br)c1O	5.96

Then there is this molecule:
Problem: Requested field: pEC50. Item: O=C(Nc1cccc(Cl)c1)c1cc(Br)cc(Br)c1O
Solution: 5.96

---

test: Liver cell viability assay (Alamar Blue); conditions: human
parameterMeasured: CC50 at 48 h

Solved entries (count: 6):
O=C(Nc1ccccc1)c1ccccc1O [Compound 16, 2-Hydroxy-N-phenylbenzamide]	67.6 µM
COc1c(Br)cc(Br)cc1C(=O)Nc1ccc(Sc2nc3ccccc3s2)c(Cl)c1	> 100 µM
COc1ccc(Br)cc1C(=O)Nc1cccc(Cl)c1	93.3 µM
COc1c(Br)cc(Br)cc1C(=O)Nc1cccc(Cl)c1	> 100 µM
CO[C@H]1/C=C/O[C@@]2(C)Oc3c(C)c(O)c4c(O)c(c(/C=N/N5CCN(C)CC5)c(O)c4c3C2=O)NC(=O)/C(C)=C\C=C\[C@H](C)[C@H](O)[C@@H](C)[C@@H](O)[C@@H](C)[C@H](OC(C)=O)[C@@H]1C [Rifampicin, rifampicin, reference compound]	72.4 µM
COc1ccc(Br)cc1C(=O)Nc1ccc(Sc2nc3ccccc3s2)cc1	> 100 µM

Problem: Requested field: CC50 at 48 h. Item: O=C(Nc1ccc(Sc2nc3ccccc3s2)cc1)c1cc(Br)cc(Br)c1
Solution: > 100 µM

Problem: Okay, and Cc1cc(C(C#N)c2ccc(Cl)cc2)c(Cl)cc1NC(=O)c1cc(I)cc(I)c1O (centres unmarked) [Closantel, closantel, reference compound] ?
Solution: 52.5 µM

Problem: Okay, and COc1c(Br)cc(Br)cc1C(=O)Nc1ccc(Sc2nc3ccccc3s2)cc1 ?
Solution: > 100 µM

Problem: Okay, and O=C(Nc1ccccc1)c1cc(Br)cc(Br)c1 [Compound 26, 3,5-Dibromo-N-phenylbenzamide] ?
Solution: > 100 µM

Problem: Okay, and COc1ccc(Br)cc1C(=O)Nc1ccc(Sc2nc3ccccc3s2)c(Cl)c1 ?
Solution: > 100 µM

---

Here, each record is paired with measured CC50 at 48 h data.
experiment: Liver cell viability assay (Alamar Blue); conditions: human

Problem: Requested field: CC50 at 48 h. Item: CN[C@H](CC(C)C)C(=O)N[C@H]1C(=O)N[C@@H](CC(N)=O)C(=O)N[C@H]2C(=O)N[C@H]3C(=O)N[C@H](C(=O)N[C@H](C(=O)O)c4cc(O)cc(O)c4-c4cc3ccc4O)[C@H](O)c3ccc(c(Cl)c3)Oc3cc2cc(c3O[C@@H]2O[C@H](CO)[C@@H](O)[C@H](O)[C@H]2O[C@H]2C[C@](C)(N)[C@H](O)[C@H](C)O2)Oc2ccc(cc2Cl)[C@H]1O [Vancomycin, vancomycin, reference compound]
Solution: > 100 µM

Problem: Okay, and COc1ccccc1C(=O)Nc1ccc(Sc2nc3ccccc3s2)c(Cl)c1 ?
Solution: > 100 µM

Problem: Okay, and O=C(Nc1cccc(Cl)c1)c1cc(Br)cc(Br)c1O ?
Solution: 9.12 µM
